Measured log10(Ki), listed per entry.
- TARGET_OF_ASSAY: rat orexin 1 receptor (Rattus norvegicus, UniProt P56718)
- EXPERIMENT_DESCRIPTION: Rat orexin 1 receptor radioligand binding
- DETAILS: rat orexin 1 receptor; averages of 2-20 runs; read-out: rOX1 Ki
Short version: log10 scale, Ki, nM.

[
  {
    "COMPOUND": "O=C(c1cccc(F)c1-c1ncccn1)N1C[C@H]2C[C@@H](Nc3ccc(C(F)(F)F)nn3)[C@@H]1C2",
    "log10(Ki)": 1.81
  },
  {
    "COMPOUND": "O=C(c1ccccc1-n1nccn1)N1C[C@@H]2CC[C@H]1[C@H](Oc1ccc(Cl)cn1)C2",
    "log10(Ki)": 0.60
  },
  {
    "COMPOUND": "O=C(c1cccc(F)c1-c1ncccn1)N1C[C@H]2C[C@@H](Nc3ccc(C(F)(F)F)nc3)[C@@H]1C2",
    "log10(Ki)": 1.41
  },
  {
    "COMPOUND": "O=C(c1ccccc1-c1ncccn1)N1C[C@H]2C[C@@H](Oc3ncc(C(F)(F)F)cc3F)[C@@H]1C2",
    "log10(Ki)": 1.04
  },
  {
    "COMPOUND": "O=C(c1cccc(F)c1-c1ncccn1)N1C[C@@H]2CC[C@H]1[C@H](Oc1ncc(C(F)(F)F)cc1F)C2",
    "log10(Ki)": 1.04
  },
  {
    "COMPOUND": "Cc1cnc(O[C@@H]2C[C@H]3C[C@@H]2N(C(=O)c2ncc(C)cc2-c2ncccn2)C3)nc1",
    "log10(Ki)": 2.82
  },
  {
    "COMPOUND": "O=C(c1cc(F)ccc1-c1ncco1)N1C[C@H]2C[C@@H](Nc3cnc(C(F)(F)F)cn3)[C@@H]1C2",
    "log10(Ki)": 1.11
  },
  {
    "COMPOUND": "O=C(c1ccccc1-n1nccn1)N1C[C@H]2C[C@@H](Nc3ccc(C(F)(F)F)nc3)[C@@H]1C2",
    "log10(Ki)": 2.29
  }
]

The recorded log10(Ki) for entry "Cc1ccc(-c2ncccn2)c(C(=O)N2C[C@H]3C[C@@H](Nc4ccc(C(F)(F)F)cn4)[C@@H]2C3)n1" equals 1.11

The recorded log10(Ki) for entry "CN(c1ccc(C(F)(F)F)cn1)[C@@H]1C[C@H]2C[C@@H]1N(C(=O)c1c(F)cccc1-c1ncccn1)C2" equals 0.78

The recorded log10(Ki) for entry "Cc1cnc(O[C@@H]2C[C@H]3C[C@@H]2N(C(=O)c2cccc(F)c2-c2ncccn2)C3)nc1" equals 1.78

The recorded log10(Ki) for entry "Cc1cnc(C(=O)N2C[C@@H]3CC[C@H]2[C@H](Oc2ccc(C(F)(F)F)cn2)C3)c(-c2ncccn2)c1" equals 1.00

The recorded log10(Ki) for entry "O=C(c1cc(F)ccc1-c1ncccn1)N1C[C@H]2C[C@@H](Oc3ccc(Br)cn3)[C@@H]1C2" equals 0.70

The recorded log10(Ki) for entry "O=C(c1cccc(F)c1-c1ncccn1)N1C[C@H]2C[C@@H](Nc3ccc(Br)cn3)[C@@H]1C2" equals 0.30

The recorded log10(Ki) for entry "O=C(c1ccccc1-c1ncc(F)cn1)N1C[C@@H]2CC[C@H]1[C@H](Oc1cnc(C(F)(F)F)cn1)C2" equals 1.36

The recorded log10(Ki) for entry "O=C(c1ccc(F)cc1-n1nccn1)N1C[C@H]2C[C@@H](Nc3cnc(C(F)(F)F)cn3)[C@@H]1C2" equals 1.60

The recorded log10(Ki) for entry Cc1cccc(C(=O)N2CC3CCC2C(Nc2cnc(C(F)(F)F)cn2)C3)c1-n1nccn1 (racemic) equals 1.30

The recorded log10(Ki) for entry "O=C(c1cccc(F)c1-c1ncccn1)N1C[C@H]2C[C@@H](Nc3cnc(Cl)cn3)[C@@H]1C2" equals 1.11

The recorded log10(Ki) for entry "CCc1cnc(O[C@@H]2C[C@H]3C[C@@H]2N(C(=O)c2cccc(F)c2-c2ncccn2)C3)nc1" equals 1.59

The recorded log10(Ki) for entry "O=C(c1ccccc1-n1nccn1)N1C[C@H]2C[C@@H](Nc3ccc(C(F)F)cn3)[C@@H]1C2" equals 1.74
